Entry source: ChEMBL document CHEMBL3091274

- Assay notes: Intrinsic clearance in rat liver microsomes
- Type: ADME
- Condition context: read-out: CLH
Readout kind: CLint scaled (mL/min/kg)
Give the value in mL/min/kg but do not write mL/min/kg after it.

The cases that follow already have their CLint scaled on record.
// query Requested read-out: CLint scaled. Entry: `Nc1c(-c2ccccc2)nn(-c2nc(C(=O)O)cs2)c1-c1ccccc1`
// result 29

// query Requested read-out: CLint scaled. Entry: `Cc1c(-c2ccccc2)nn(-c2nc(C(=O)O)cs2)c1-c1ccccc1`
// result 15

// query Requested read-out: CLint scaled. Entry: `O=C(O)c1csc(-n2nc(-c3ccccc3)c3c2-c2ccccc2C3)n1`
// result 927

Next:
// query Requested read-out: CLint scaled. Entry: `O=C(O)c1csc(-n2nc3c(c2-c2ccccc2)CCc2ccccc2-3)n1`
// result 236
